assay-target: Kv7.2/7.3 (KCNQ2/3) (Homo sapiens, UniProt O43525+O43526)
Construct: expressed in transfected cells; host or cells: CHO
assay-info: CHO-Kv7.2/7.3 (KCNQ2/3) 86Rb efflux assay
Assay type: cell-based
settings: Table 7, second, unlabelled line of values; read-out: EC50 (μM, raw)
Listed next: entries and their corresponding EC50.
metric: EC50 (µM)

> print(dat)
                                smiles.code  unit.tag  inequality.operator  measured.result
1        CCCOc1nn(CCC)cc1C(=O)Nc1cc(F)ccc1F        µM                    >               10
2     CCCOc1nn(CCC)cc1C(=O)Nc1ccc(F)c(Cl)c1        µM                    =             0.14
3       CCCOc1nn(CCC)cc1C(=O)Nc1ccc(C#N)cc1        µM                    >               30
4  CCCOc1nn(CCC)cc1C(=O)Nc1ccc(C(F)(F)F)c(Cl)c1        µM                    =             2.63
5  CCCOc1nn(CCC)cc1C(=O)Nc1ccc(C(F)(F)F)c(C)c1        µM                    =              1.6
